experiment: DSSTox (CPDBAS) Carcinogenic Potency Database Summary SingleCellCall Results; settings: animal chronic carcinogenicity bioassays, CPDB summary call
Activity calls are given as the source filed them.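 How the source made its calls: active means a tumor-causing dose value with its tumor site reported for any sex and species group of a rodent or other animal cancer study; inconclusive means only studies judged inadequate by the national testing program; inactive means tested in at least one study, none positive.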
Labels: active, inactive

# COMPOUND, DISCRETE LABEL
records = [
    ("CC(/C=C/C=C(\\C)C(=O)O[C@@H]1O[C@H](CO[C@@H]2O[C@H](CO)[C@@H](O)[C@H](O)[C@H]2O)[C@@H](O)[C@H](O)[C@H]1O)=C\\C=C\\C=C(C)\\C=C\\C=C(/C)C(=O)O[C@@H]1O[C@H](CO[C@@H]2O[C@H](CO)[C@@H](O)[C@H](O)[C@H]2O)[C@@H](O)[C@H](O)[C@H]1O", "inactive"),
    ("O=P1(N(CCCl)CCCl)NCCCO1 (stereo not given)", "active"),
    ("Nc1cccc2ccccc12", "active"),
    ("N[C@@H](CCC(=O)NNc1ccc(CO)cc1)C(=O)O", "inactive"),
    ("C=C(Cl)Cl", "active"),
    ("CCN(Cc1cccc(S(=O)(=O)[O-])c1)c1ccc(C(=C2C=CC(=[N+](C)C)C=C2)c2ccc(N(CC)Cc3cccc(S(=O)(=O)O)c3)cc2)cc1", "active"),
    ("O=C1CCCO1", "inactive"),
    ("CCN(N=O)C(N)=O", "active"),
    ("Cc1c2ccccc2c(C)c2c1ccc1ccccc12", "active"),
    ("Nc1ccc(Sc2ccc(N)cc2)cc1", "active"),
]

###

Assay: DSSTox (CPDBAS) Carcinogenic Potency Database Summary SingleCellCall Results
Conditions: animal chronic carcinogenicity bioassays, CPDB summary call
Excerpt: The Carcinogenic Potency Database (CPDB) is a unique and widely used international resource of the results of over 6500 chronic, long-term animal cancer tests on over 1500 chemical substances. The CPDB provides easy access to the bioassay literature, with qualitative and quantitative analyses of both positive and negative experiments that have been published over the past 50 years in the general literature and by the National Cancer Institute/National Toxicology Program. […]
The source made the active and inactive calls.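 The calls were made as follows: active = a tumor-causing dose value with its tumor site reported for any sex and species group of a rodent or other animal cancer study; inconclusive = only studies judged inadequate by the national testing program; inactive = tested in at least one study, none positive.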
Labels: active, inactive

# COMPOUND, DISCRETE LABEL
records = [
    ("[Se]", "inactive"),
    ("C=CC(O)c1ccc2c(c1)OCO2 (configuration not stated)", "active"),
    ("NCCCCCC(=O)O", "inactive"),
    ("O=CC1CO1 (configuration not stated)", "inactive"),
    ("NC(Cc1ccc(O)c(O)c1)C(=O)O (configuration not stated)", "inactive"),
    ("CC(Cl)(Cl)Cl", "inactive"),
    ("CC1CN(N=O)C(=O)NC1=O (configuration not stated)", "inactive"),
    ("C1COCCO1", "active"),
    ("BrC(Br)Br", "active"),
    ("O=NN1CCCCCC1", "active"),
    ("Cc1ncc([N+](=O)[O-])n1CCO", "active"),
    ("CN(C)C(=S)[S-].CN(C)C(=S)[S-].[Cu+2]", "inactive"),
    ("O=C(O)CN(CCN(CC(=O)O)CC(=O)O)CC(=O)O", "inactive"),
    ("CN(C#N)N=O", "active"),
    ("CC1=C[C@H]2O[C@@H]3[C@H](O)C[C@@](C)(C34CO4)[C@@]2(CO)[C@H](O)C1=O (some centres not stated)", "inactive"),
    ("COc1cc(S(C)=O)ccc1-c1nc2ccncc2[nH]1 (configuration not stated)", "active"),
    ("CCN(CC)C(=O)c1cccc(C)c1", "inactive"),
    ("COc1ccc(C(=O)/C(Br)=C\\C(=O)O)cc1", "active"),
    ("Oc1ccc(Cl)cc1Cl", "inactive"),
    ("Cc1ccccc1N=O", "active"),
    ("C[N+](C)(C)CCCl", "inactive"),
    ("CCNC(=S)NCC", "active"),
    ("O=CNc1nc(-c2ccc([N+](=O)[O-])o2)cs1", "active"),
    ("CCC1(c2ccccc2)C(=O)NC(=O)NC1=O", "active"),
    ("C[C@H]1CCCCN1N=O", "active"),
    ("Nc1ccc(Oc2ccc(N)c(N)c2)cc1", "active"),
    ("Cc1ccc(O)c(C(C)(C)C)c1", "inactive"),
    ("CC1(C)C(=O)Nc2ccc(C3=NNC(=O)CC3)cc21", "active"),
    ("CN(CCCC(=O)c1cccnc1)N=O", "active"),
    ("COS(C)(=O)=O", "active"),
    ("COc1c(Cl)c(Cl)c([N+](=O)[O-])c(Cl)c1Cl", "inactive"),
    ("COc1cc(OC)c2c3c(c(=O)oc2c1)CCC3=O", "inactive"),
]

###

assay: DSSTox (CPDBAS) Carcinogenic Potency Database Summary SingleCellCall Results; settings: animal chronic carcinogenicity bioassays, CPDB summary call
Activity calls are given as the source filed them.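 How the source made its calls: active means a tumor-causing dose value with its tumor site reported for any sex and species group of a rodent or other animal cancer study; inconclusive means only studies judged inadequate by the national testing program; inactive means tested in at least one study, none positive.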
Outcomes: active, inactive

# COMPOUND, DISCRETE LABEL
rows = [
    ("CN(N)C=O", "active"),
    ("NN", "active"),
    ("CC(C)C/C=N/N(C)C=O", "active"),
    ("CCCCCCCC/C=C\\CCCCCCCC(=O)O", "inactive"),
    ("CCCCC(CC)COC(=O)c1ccccc1C(=O)OCC(CC)CCCC (centres undefined)", "active"),
    ("CC1(C)COC1=O", "active"),
    ("CCCCCl", "inactive"),
    ("CC1=C[C@H]2[C@@]3(O)[C@H](C)[C@@H](O)[C@]4(O)[C@H]([C@@H]3C=C(CO)C[C@]2(O)C1=O)C4(C)C", "active"),
    ("O=NN1CCCCCCC1", "active"),
    ("CC(=O)Nc1nc(NC(C)=O)nc(-c2ccc([N+](=O)[O-])o2)n1", "active"),
    ("[O-][Cl+]O", "inactive"),
    ("C[C@]12CC[C@H]3C(=CCc4cc(OS(=O)(=O)O)ccc43)[C@@H]1CCC2=O", "inactive"),
    ("Cc1cc(O)c(C(C)(C)C)cc1Sc1cc(C(C)(C)C)c(O)cc1C", "inactive"),
    ("ClC(Cl)=C(c1ccc(Cl)cc1)c1ccc(Cl)cc1", "active"),
]

###

assay: DSSTox (CPDBAS) Carcinogenic Potency Database Summary SingleCellCall Results; conditions: animal chronic carcinogenicity bioassays, CPDB summary call
The source made the active and inactive calls.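 Rule for the calls: active = a tumor-causing dose value with its tumor site reported for any sex and species group of a rodent or other animal cancer study; inconclusive = only studies judged inadequate by the national testing program; inactive = tested in at least one study, none positive.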
Outcomes: T for active, F for inactive

# SMILES INPUT, DISCRETE LABEL
records = [
    ("c1ccc2c(c1)Oc1ccccc1O2", "F"),
    ("Cc1ccc(N)c(C)c1", "T"),
    ("Nc1cccc2c(N)cccc12", "T"),
    ("Clc1ccc(-c2cccc(Cl)c2Cl)c(Cl)c1", "T"),
    ("Cc1cc(C)nc(NS(=O)(=O)c2ccc(N)cc2)n1", "T"),
    ("CCCCN(CCCC)C(=S)[S-].CCCCN(CCCC)C(=S)[S-].[Zn+2]", "F"),
    ("COc1ccc(C(Cl)=C(c2ccc(OC)cc2)c2ccc(OC)cc2)cc1", "F"),
]

###

Assay: DSSTox (CPDBAS) Carcinogenic Potency Database Summary SingleCellCall Results
Conditions: animal chronic carcinogenicity bioassays, CPDB summary call
Source text: The Carcinogenic Potency Database (CPDB) is a unique and widely used international resource of the results of over 6500 chronic, long-term animal cancer tests on over 1500 chemical substances. The CPDB provides easy access to the bioassay literature, with qualitative and quantitative analyses of both positive and negative experiments that have been published over the past 50 years in the general literature and by the National Cancer Institute/National Toxicology Program. […]
The source made the active and inactive calls.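 How the source made its calls: active means a tumor-causing dose value with its tumor site reported for any sex and species group of a rodent or other animal cancer study; inconclusive means only studies judged inadequate by the national testing program; inactive means tested in at least one study, none positive.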

# COMPOUND, outcome
records = [
    ("Clc1cc(Cl)cc(-c2cc(Cl)cc(Cl)c2)c1", "inactive"),
    ("Cc1cccc2cccnc12", "inactive"),
    ("C=CCN(N)CC=C", "active"),
    ("CC1=CC(=O)NS(=O)(=O)O1", "inactive"),
    ("CCCCCCCCCCCCCCCC(=O)OC/C=C(C)/C=C/C=C(C)/C=C/C1=C(C)CCCC1(C)C", "inactive"),
    ("CN(C)CCOC(c1ccccc1)c1ccccc1", "inactive"),
    ("CN(C)CCC(c1ccc(Cl)cc1)c1ccccn1 (centres undefined)", "inactive"),
    ("Clc1ccc(Sc2cc(Cl)c(Cl)cc2Cl)cc1", "inactive"),
    ("CCOc1ccc(NC(C)=O)cc1", "active; inactive"),
    ("CC(=O)N(O)c1ccc2c(c1)Cc1ccccc1-2", "active; inactive"),
    ("O=NO", "active"),
    ("ClCCCl", "active"),
    ("OCCN(CCO)c1nc(-c2cccs2)nc2ccccc12", "inactive"),
    ("O=C1NC(c2ccc([N+](=O)[O-])s2)Nc2ccccc21 (centres undefined)", "active"),
    ("O=C(O)c1nn(Cc2ccc(Cl)cc2Cl)c2ccccc12", "inactive"),
    ("Nc1ccc(-c2ccccc2)cc1O", "inactive"),
    ("OCC1CO1 (centres undefined)", "active"),
    ("O=CCCl", "active"),
    ("CN(N=O)c1ncnc2nc[nH]c12", "active"),
    ("[O]=[Mo](=[O])=[O]", "active"),
    ("[Cl-].[Cl-].[Cl-].[Fe+3]", "inactive"),
    ("O=NN(CC(F)(F)F)CC(F)(F)F", "inactive"),
    ("C=CC#N", "active"),
    ("COc1cccc(O)c1O", "active"),
    ("CCCCC1C(=O)N(c2ccccc2)N(c2ccccc2)C1=O", "active; inactive"),
    ("O=P(OC(CCl)CCl)(OC(CCl)CCl)OC(CCl)CCl", "active"),
    ("CC(=O)OC[C@H]1O[C@H](O[C@]2(COC(C)=O)O[C@H](COC(=O)C(C)C)[C@@H](OC(=O)C(C)C)[C@@H]2OC(=O)C(C)C)[C@H](OC(=O)C(C)C)[C@@H](OC(=O)C(C)C)[C@@H]1OC(=O)C(C)C", "inactive"),
    ("CC(Cl)C=O (centres undefined)", "active"),
]

Every entry's value here was drawn from PubChem BioAssay AID1189.
